PROCEDURE TEXT: Inhibition of Hsp70 in human SKBR3 cells assessed as HER2 protein degradation by Western blotting analysis
Type: cell-based
EXPERIMENTAL SETUP: SK-BR-3
pIC50: −log10 of the molar value.
Assign 1 whenever pIC50 does not fall below 5; assign -1 whenever it does.

[
  {
    "COMPOUND": "C=CC(=O)Nc1cccc(Sc2c(OC)nc(N3CCOCC3)nc2OC)c1",
    "CLASS LABEL": -1
  },
  {
    "COMPOUND": "O=c1c(O)c(-c2cc(O)c(O)c(O)c2)oc2cc(O)cc(O)c12 [MYRICETIN]",
    "CLASS LABEL": -1
  },
  {
    "COMPOUND": "C=CC(=O)Nc1cc(N)nc(Sc2c(OC)nc(N3CCN(CCOCCOCCOCCO)CC3)nc2OC)n1",
    "CLASS LABEL": 1
  },
  {
    "COMPOUND": "C=CC(=O)Nc1cc(N)nc(Sc2c(OCC)nc(N3CCN(C)CC3)nc2OCC)n1",
    "CLASS LABEL": 1
  },
  {
    "COMPOUND": "C=CC(=O)Nc1cc(N)nc(Sc2c(OC)nc(N)nc2OC)n1",
    "CLASS LABEL": 1
  },
  {
    "COMPOUND": "C=CC(=O)Nc1cc(N)nc(Sc2c(OC)nc(N3CCN(C)CC3)nc2OC)n1",
    "CLASS LABEL": 1
  }
]

## Task Quick check, pIC50 >= 5? C=CC(=O)Nc1cc(N)nc(Sc2c(OC)nc(N3CCN(C)CC3)nc2OCCOCCOCCOCCO)n1
## Result -1

## Task Quick check, pIC50 >= 5? C=CC(=O)Nc1ccnc(Sc2c(C)nc(N3CCN(C)CC3)nc2C)n1
## Result 1

## Task Quick check, pIC50 >= 5? C=CC(=O)Nc1ccnc(Sc2c(OC)nc(N3CCCC3)nc2OC)n1
## Result -1

## Task Quick check, pIC50 >= 5? C=C(C)C(=O)Nc1ccnc(Sc2c(C)nc(N3CCN(C)CC3)nc2C)n1
## Result -1

## Task Quick check, pIC50 >= 5? C=CC(=O)Nc1cc(N)nc(Sc2c(OC)nc(N3CCCCC3)nc2OC)n1
## Result 1

## Task Quick check, pIC50 >= 5? C=CC(=O)Nc1cc(N)nc(Sc2c(OCC)nc(N3CCCCC3)nc2OCC)n1
## Result 1

## Task Quick check, pIC50 >= 5? C#CCCCn1c(Cc2cc(OC)c(OC)c(OC)c2Cl)nc2c(N)nc(F)nc21
## Result 1

Where these numbers come from: ChEMBL document CHEMBL3124781
